Entry source: PubChem BioAssay AID504687

- TARGET SYSTEM: Ubiquitin-conjugating enzyme E2 N (Homo sapiens)
- PROTOCOL NOTES: analogue potency against UBC13 ubiquitin chains – biochemical, TR-FRET, SAR follow-up (AID 504687)
- CONDITION: UBC13 polyubiquitin formation
Activity calls are given as the source filed them. The rule behind the calls is not given here.
Labels: TRUE (active), FALSE (inactive)

CC1CCCCN1C(=O)C1CCN(c2ncnc3c2nc2n3CCCCC2)CC1 (stereo not drawn) = FALSE
O=C(CCCCn1c(=O)c2ccccc2n(Cc2ccccc2F)c1=O)NC1CCN(Cc2ccccc2)CC1 = TRUE
COc1cc2nc(N(CCCN(C)C)C(=O)c3ccc(S(=O)(=O)N4CCc5ccccc5C4)cc3)sc2cc1OC = TRUE
Cc1cc(C)c2sc(N(CCCN(C)C)C(=O)c3ccc(S(=O)(=O)N(C)C4CCCCC4)cc3)nc2c1 = TRUE
CC(=O)Nc1ccc(OCC(O)CN2CCN(CCN3C(=O)c4cccc5cccc(c45)C3=O)CC2)cc1 (stereo not drawn) = TRUE
N#Cc1ccccc1Cn1c(=O)n(CCCC(=O)NC2CCN(Cc3ccccc3)CC2)c(=O)c2ccccc21 = TRUE
CCc1ccc(OCC(O)CN2CCC(CN3C(=O)c4cccc5cccc(c45)C3=O)CC2)cc1 (stereo not drawn) = TRUE
CCCOC(=O)c1ccc(NC(=O)CCCCCN2C(=O)c3ccccc3C2=O)cc1 = FALSE
O=C(CCCn1c(=O)c2ccccc2n(Cc2ccccc2F)c1=O)NC1CCN(Cc2ccccc2)CC1 = TRUE
CC1CCCC(C)N1CCCNC(=O)C1CCCN(c2ncnc3c2nc2n3CCCCC2)C1 (stereo not drawn) = TRUE
CC(=O)c1ccccc1OCC(O)CN1CCN(CCN2C(=O)c3cccc4cccc(c34)C2=O)CC1 (stereo not drawn) = TRUE
Cc1ccccc1NC(=S)NC(=O)CCCCCN1C(=O)c2ccccc2C1=O = FALSE
O=C(CCCn1c(=O)c2ccccc2n(Cc2ccc(Cl)cc2)c1=O)NC1CCN(Cc2ccccc2)CC1 = TRUE
COc1ccc(COCC(O)CN2CCC(CN3C(=O)c4cccc5cccc(c45)C3=O)CC2)cc1OC (stereo not drawn) = TRUE
O=C1c2cccc3cccc(c23)C(=O)N1CCN1CCN(CC(O)COc2ccccc2)CC1 (stereo not drawn) = TRUE
Cc1cccc(C)c1NC(=O)Cn1c(=O)n(CCCC(=O)NC2CCN(Cc3ccccc3)CC2)c(=O)c2ccccc21 = TRUE
Cc1cc(NC(=O)Cn2c(=O)n(CCCCC(=O)NC3CCN(Cc4ccccc4)CC3)c(=O)c3ccccc32)n[nH]1 = TRUE
CCc1ccc2nc(N(CCCN(C)C)C(=O)c3ccc(S(=O)(=O)N4CCc5ccccc5C4)cc3)sc2c1 = TRUE

---

- TARGET SYSTEM: Ubiquitin-conjugating enzyme E2 N (Homo sapiens) (UniProt P61088)
- Sequence (P61088 whole entry, looked up): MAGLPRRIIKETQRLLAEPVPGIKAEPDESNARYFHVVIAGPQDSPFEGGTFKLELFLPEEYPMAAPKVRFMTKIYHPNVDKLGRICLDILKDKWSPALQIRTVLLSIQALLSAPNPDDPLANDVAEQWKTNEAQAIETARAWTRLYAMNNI
- PROTOCOL NOTES: analogue potency against UBC13 ubiquitin chains – biochemical, TR-FRET, SAR follow-up (AID 504687)
- CONDITION: UBC13 polyubiquitin formation
Calls of active or inactive are those of the source. The rule behind the calls is not given here.
Possible outcomes: active, inactive

CC1(C)Cc2c(sc(NC(=O)COc3ccc(Cl)cc3Cl)c2C(N)=O)C(C)(C)N1 = active
Cc1cc(OCC(O)CN2CCN(CCN3C(=O)c4cccc5cccc(c45)C3=O)CC2)ccc1C(C)C (stereo not drawn) = active
Cc1cc(C)cc(OCCNC(=O)CCCCCN2C(=O)c3ccccc3C2=O)c1 = inactive
O=C(Nc1ccc(F)c(Cl)c1)C1CCN(c2ncnc3c2nc2n3CCCCC2)CC1 = active
CCCCOC(=O)c1cccc(NC(=O)CCCCCN2C(=O)c3ccccc3C2=O)c1 = inactive
Cc1ccccc1OCC(O)CN1CCN(CCN2C(=O)c3cccc4cccc(c34)C2=O)CC1 (stereo not drawn) = active
COc1ccc(OC)c2sc(N(CCCN(C)C)C(=O)c3ccc(S(=O)(=O)N4CCc5ccccc5C4)cc3)nc12 = active
CCCCN(CC)S(=O)(=O)c1ccc(C(=O)N(CCCN(C)C)c2nc3cc(C)cc(C)c3s2)cc1 = active
CCOc1cccc2sc(N(CCCN(C)C)C(=O)c3ccc(S(=O)(=O)N(C)Cc4ccccc4)cc3)nc12 = active
CCN(Cc1ccccc1)S(=O)(=O)c1ccc(C(=O)N(CCCN(C)C)c2nc3cc4c(cc3s2)OCCO4)cc1 = active
O=C(C1COc2ccccc2O1)N1CCN(CCN2C(=O)c3cccc4cccc(c34)C2=O)CC1 (stereo not drawn) = inactive
Cc1cc(C)c2sc(N(CCCN(C)C)C(=O)c3ccc(S(=O)(=O)N4CCc5ccccc5C4)cc3)nc2c1 = active
CN(C)CCCN(C(=O)c1ccc(S(=O)(=O)N2CCCCC2)cc1)c1nc2cc3c(cc2s1)OCO3 = active
O=C1c2cccc3cccc(c23)C(=O)N1CCN1CCN(CC(O)COc2ccc(Cl)cc2)CC1 (stereo not drawn) = active
CCOc1ccc2nc(N(CCCN(C)C)C(=O)c3ccc(C(=O)c4ccccc4)cc3)sc2c1 = active
Cc1cc(NS(=O)(=O)c2ccc(NC(=O)CCCCCN3C(=O)c4ccccc4C3=O)cc2)nc(C)n1 = inactive
O=C1c2cccc3cccc(c23)C(=O)N1CCN1CCN(CC(O)COc2ccc3ccccc3c2)CC1 (stereo not drawn) = active
COc1ccccc1NC(=S)NC(=O)CCCCCN1C(=O)c2ccccc2C1=O = inactive

---

- TARGET SYSTEM: Ubiquitin-conjugating enzyme E2 N (Homo sapiens) (UniProt P61088)
- PROTOCOL NOTES: analogue potency against UBC13 ubiquitin chains – biochemical, TR-FRET, SAR follow-up (AID 504687)
- CONDITION: UBC13 polyubiquitin formation
Calls of active or inactive are those of the source. The rule behind the calls is not given here.
Classes used: active, inactive

O=C(CCCn1c(=O)c2ccccc2n(Cc2cccc(F)c2)c1=O)NC1CCN(Cc2ccccc2)CC1 = active
O=C1c2cccc3cccc(c23)C(=O)N1CCN1CCN(CC(O)COc2ccc3c(c2)OCO3)CC1 (centres undefined) = active
CCOC(=O)c1c(NC(=O)COc2ccccc2C#N)sc2c1CC(C)(C)NC2(C)C = active
CN(C)CCCN(C(=O)c1ccc(S(=O)(=O)N2CCCCCC2)cc1)c1nc2cc3c(cc2s1)OCCO3 = active
Cc1ccc2nc(N(CCCN(C)C)C(=O)c3ccc(S(=O)(=O)N4CCc5ccccc5C4)cc3)sc2c1 = active
O=C1c2cccc3cccc(c23)C(=O)N1CCN1CCN(CC(O)COCc2ccc(Cl)cc2)CC1 (centres undefined) = active
O=C(CCCCn1c(=O)c2ccccc2n(Cc2ccccc2)c1=O)NC1CCN(Cc2ccccc2)CC1 = active
CCC1CCCCN1CCCNC(=O)C1CCN(c2ncnc3c2nc2n3CCCCC2)CC1 (centres undefined) = active
Cc1cc(C)c2sc(N(CCCN(C)C)C(=O)c3ccc(S(=O)(=O)N(C)Cc4ccccc4)cc3)nc2c1 = active
CN(C)CCCN(C(=O)c1ccc(C(=O)c2ccccc2)cc1)c1nc2cc3c(cc2s1)OCO3 = active
COc1cccc2sc(N(CCCN(C)C)C(=O)c3ccc(S(=O)(=O)N4CCc5ccccc5C4)cc3)nc12 = active
COCCOC(=O)c1ccc(NC(=O)CCCCCN2C(=O)c3ccccc3C2=O)cc1 = inactive
COc1ccc(-c2oc3ncnc(N)c3c2-c2ccccc2)cc1 = active
C=CCc1ccccc1OCC(O)CN1CCN(CCN2C(=O)c3cccc4cccc(c34)C2=O)CC1 (centres undefined) = active
COc1cc(/C=C/c2cc[n+](C)cc2)ccc1OCC(=O)Nc1ccc(Cl)c(Cl)c1 = active
CC1CC(C)CN(C(=O)C2CCN(c3ncnc4c3nc3n4CCCCC3)CC2)C1 (centres undefined) = inactive
COC(=O)C1=C(NC(=O)CCCCCN2C(=O)c3ccccc3C2=O)SC2CCCC12 (centres undefined) = inactive
Cc1ccc(NC(=O)C2CCN(c3ncnc4c3nc3n4CCCCC3)CC2)cc1Cl = active
O=C1c2cccc3cccc(c23)N1Cc1ccc(F)cc1 = active

---

- TARGET SYSTEM: UniProt:P61088
Measured IC50 accompanies every entry in the list below.
METRIC: IC50

Cc1nc2ccccc2c(=O)n1NC(=O)c1ccc(OC(F)F)cc1 = 15 µM
Cc1ccc2c(c1)C1CN(C)CCC1N2C(=O)CCCN1C(=O)c2cccc3cccc(c23)C1=O (stereo not given) = 3.92 µM
O=C(C1CCN(c2ncnc3c2nc2n3CCCCC2)CC1)N1CCN(Cc2ccccc2)CC1 = 6.45 µM
CCOc1ccc2nc(N(CCCN(C)C)C(=O)c3ccc(S(=O)(=O)N4CCc5ccccc5C4)cc3)sc2c1 = 3.19 µM
O=C(CCCn1c(=O)c2ccccc2n(Cc2cccc([N+](=O)[O-])c2)c1=O)NC1CCN(Cc2ccccc2)CC1 = 0.34 µM

---

- TARGET SYSTEM: Ubiquitin-conjugating enzyme E2 N (Homo sapiens) (UniProt P61088)
- PROTOCOL NOTES: analogue potency against UBC13 ubiquitin chains – biochemical, TR-FRET, SAR follow-up (AID 504687)
- CONDITION: UBC13 polyubiquitin formation
The source made the active and inactive calls. The rule behind the calls is not given here.
Labels: Yes for active, No for inactive

O=C(CCCCCN1C(=O)c2cccc3cccc(c23)C1=O)NCc1cccnc1 = Yes
O=C(NCCCN1CCN(c2ccccc2)CC1)C1CCCN(c2ncnc3c2nc2n3CCCCC2)C1 (centres undefined) = Yes
O=C(C1CCN(c2ncnc3c2nc2n3CCCCC2)CC1)N1CCN(c2ccccn2)CC1 = No
O=C(NCCCN1CCCCC1)C1CCN(c2ncnc3c2nc2n3CCCCC2)CC1 = Yes
CC1CN(S(=O)(=O)c2ccc(NC(=O)CCCCCN3C(=O)c4ccccc4C3=O)cc2)CC(C)O1 (centres undefined) = No
O=C(c1ccc(S(=O)(=O)N2CCCC2)cc1)N1CCC(CN2C(=O)c3cccc4cccc(c34)C2=O)CC1 = Yes
O=C(CCCCCN1C(=O)c2ccccc2C1=O)Nc1ccc(S(=O)(=O)N2CCCCC2)cc1 = Yes
CN(C)CCCN(C(=O)c1ccc(S(=O)(=O)N2CCc3ccccc3C2)cc1)c1nc2ccc(F)cc2s1 = Yes
O=C(c1ccco1)N1CCN(C(=O)C2CCN(c3ncnc4c3nc3n4CCCCC3)CC2)CC1 = No
